Items are presented alongside their recorded melting point.
Number first, unit second.

// worked examples, melting point included
smilesRepr	melting point
O=C(O)c1ccc(Cn2c(=O)c3cc(C(=O)NCc4ccc5c(c4)OCO5)ccc3n3cnnc23)cc1	235 °C
COC(=O)c1ccc(Cn2c(=O)c3cc(C(=O)NCc4ccncc4)ccc3n3cnnc23)cc1	235 °C
O=C(NCc1ccncc1)c1ccc2c(c1)c(=O)n(C/C=C/c1ccncc1)c1nncn21	250 °C
O=C(O)Cc1ccc(Cn2c(=O)c3cc(C(=O)NCc4ccc5c(c4)OCO5)ccc3n3cnnc23)cc1	232 °C

// below: melting point requested for another compound
In: Would you mind telling me what melting point value was observed for `COc1ccc(CNC(=O)c2ccc3c(c2)c(=O)n(Cc2ccc(CC(=O)O)cc2)c2nncn32)cc1` ?
Out: 268 °C
